All values here come from paper PMC11909128.

- Test Target: T1, GST-PIN1 (UniProt Q13526 1-163, methionine (Met 1) mutated to asparagine (Asn 1))
- T1 construct: peptidyl-prolyl cis-trans isomerase PIN1 from the GST-PIN1 plasmid (Addgene #19027); also called GST-tagged PIN1 construct; source: E. coli BL21 (DE3), purified (Glutathione spin columns)
- T1 sequence (Q13526 other isoform, or with tags, fused parts or gaps with the stated changes): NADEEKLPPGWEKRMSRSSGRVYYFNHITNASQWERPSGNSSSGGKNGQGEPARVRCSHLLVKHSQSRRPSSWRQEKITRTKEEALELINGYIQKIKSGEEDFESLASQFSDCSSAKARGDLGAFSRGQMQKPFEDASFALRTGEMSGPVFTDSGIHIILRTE
- Assay: fluorescence polarisation; competition: Pintide titrated to GST-PIN1 (1 uM) and fluorescently labelled NRF2(571-584) pSer577 peptide (10 nM)
- Test Settings: both partners purified
Square brackets hold non-standard residues; d marks the D form. Ends that are not written are not given here. pS = N[C@@H](COP(=O)(O)O)C(=O)O
Reported Metric: IC50 (µM)
// return numeric value only (unit: µM, not printed)

Query string: For the binder shown here, WFY[pS]PFLE (also called WW domain-selective Pintide; source: synthetic peptide, bought: China Peptides) [Pintide (competitor, not labelled)] , give the reported IC50.
Result string: 6.7
